Data provenance is BigSolDB 2.1.

details: in ethanol, 313.15 K
reported property: solubility (mole fraction)

[
  {
    "structure smiles": "CCc1cc(C(N)=S)ccn1",
    "quantitative result": 0.0161
  }
]

* * *

conditions: in n-propanol, 293.15 K

[
  {
    "structure smiles": "CCc1cc(C(N)=S)ccn1",
    "solubility (mole fraction)": 0.00719
  }
]

* * *

conditions: in DMSO, 298.15 K

[
  {
    "structure smiles": "CCc1cc(C(N)=S)ccn1",
    "solubility (mole fraction)": 0.205
  }
]

* * *

conditions: in acetone, 288.15 K

[
  {
    "structure smiles": "CCc1cc(C(N)=S)ccn1",
    "solubility (mole fraction)": 0.00799
  }
]
